Provenance of the data: ChEMBL document CHEMBL1132673

studyTarget: Peptidyl-prolyl cis-trans isomerase FKBP1A (Homo sapiens)
method: Immunosuppressive activity in FK506 binding protein 12 binding assay as inhibitory concentration (rIC50) relative to FK506 IC50 (1.2 nM)
endpointName: rIC50

I: CC[C@@H]1/C=C(\C)C[C@H](C)C[C@H](OC)[C@H]2O[C@@](O)(C(=O)C(=O)N3CCCC[C@H]3C(=O)O[C@H](/C(C)=C/[C@@H]3CC[C@@H](OC(=S)NC(=O)c4ccc5ccccc5c4)[C@H](OC)C3)[C@H](C)[C@@H](O)CC1=O)[C@H](C)C[C@@H]2OC
II: CC[C@@H]1/C=C(\C)C[C@H](C)C[C@H](OC)[C@H]2O[C@@](O)(C(=O)C(=O)N3CCCC[C@H]3C(=O)O[C@H](/C(C)=C/[C@@H]3CC[C@@H](OC(=S)NC(=O)CCC(=O)OC)[C@H](OC)C3)[C@H](C)[C@@H](O)CC1=O)[C@H](C)C[C@@H]2OC
Q: # argmax over rIC50 for candidates I and II // caller expects the label of the chosen entry
Ans: I

====

method: In vitro immunosuppressive activity measured in the interleukin-2 receptor gene assay (IL-2 RGA) in mitogen-stimulated human T-cell line; relative to FK506
endpointName: rIC50

- structureString: "CC[C@@H]1/C=C(\\C)C[C@H](C)C[C@H](OC)[C@H]2O[C@@](O)(C(=O)C(=O)N3CCCC[C@H]3C(=O)O[C@H](/C(C)=C/[C@@H]3CC[C@@H](OC(=S)NC(=O)CCC(=O)OC)[C@H](OC)C3)[C@H](C)[C@@H](O)CC1=O)[C@H](C)C[C@@H]2OC"
  rIC50: 4.6

1: CC[C@@H]1/C=C(\C)C[C@H](C)C[C@H](OC)[C@H]2O[C@@](O)(C(=O)C(=O)N3CCCC[C@H]3C(=O)O[C@H](/C(C)=C/[C@@H]3CC[C@@H](OC(=S)NC(=O)c4ccccc4)[C@H](OC)C3)[C@H](C)[C@@H](O)CC1=O)[C@H](C)C[C@@H]2OC
2: CC[C@@H]1/C=C(\C)C[C@H](C)C[C@H](OC)[C@H]2O[C@@](O)(C(=O)C(=O)N3CCCC[C@H]3C(=O)O[C@H](/C(C)=C/[C@@H]3CC[C@@H](OC(=S)NC(=O)c4ccc(C(=O)OC)cc4)[C@H](OC)C3)[C@H](C)[C@@H](O)CC1=O)[C@H](C)C[C@@H]2OC
3: CC[C@@H]1/C=C(\C)C[C@H](C)C[C@H](OC)[C@H]2O[C@@](O)(C(=O)C(=O)N3CCCC[C@H]3C(=O)O[C@H](/C(C)=C/[C@@H]3CC[C@@H](OC(=O)NNc4ccccc4)[C@H](OC)C3)[C@H](C)[C@@H](O)CC1=O)[C@H](C)C[C@@H]2OC
Q: Order field: rIC50 | Direction: descending (largest first) I would appreciate it if you listed the labels in the requested order.
Ans: 2, 1, 3
(2: 9, 1: 3.4, 3: 0.7)

====

studyTarget: Peptidyl-prolyl cis-trans isomerase FKBP1A (Homo sapiens)
method: Immunosuppressive activity in FK506 binding protein 12 binding assay as inhibitory concentration (rIC50) relative to FK506 IC50 (1.2 nM)
endpointName: rIC50

- structureString: "CC[C@@H]1/C=C(\\C)C[C@H](C)C[C@H](OC)[C@H]2O[C@@](O)(C(=O)C(=O)N3CCCC[C@H]3C(=O)O[C@H](/C(C)=C/[C@@H]3CC[C@@H](OC(=S)NC(=O)C[C@@H]4OC(C)(C)OC4=O)[C@H](OC)C3)[C@H](C)[C@@H](O)CC1=O)[C@H](C)C[C@@H]2OC"
  endpointName: "rIC50"
  assayResult: 0.9

I: CC[C@@H]1/C=C(\C)C[C@H](C)C[C@H](OC)[C@H]2O[C@@](O)(C(=O)C(=O)N3CCCC[C@H]3C(=O)O[C@H](/C(C)=C/[C@@H]3CC[C@@H](OC(=S)NC(=O)c4ccco4)[C@H](OC)C3)[C@H](C)[C@@H](O)CC1=O)[C@H](C)C[C@@H]2OC
II: CC[C@@H]1/C=C(\C)C[C@H](C)C[C@H](OC)[C@H]2O[C@@](O)(C(=O)C(=O)N3CCCC[C@H]3C(=O)O[C@H](/C(C)=C/[C@@H]3CC[C@@H](OC(=O)NC(=O)c4ccccc4)[C@H](OC)C3)[C@H](C)[C@@H](O)CC1=O)[C@H](C)C[C@@H]2OC
Q: Looking at recorded values for rIC50, does I or II come in lower? // caller expects the label of the chosen entry
Ans: II

====

method: In vitro immunosuppressive activity measured in the interleukin-2 receptor gene assay (IL-2 RGA) in mitogen-stimulated human T-cell line; relative to FK506
endpointName: rIC50

1: CC[C@@H]1/C=C(\C)C[C@H](C)C[C@H](OC)[C@H]2O[C@@](O)(C(=O)C(=O)N3CCCC[C@H]3C(=O)O[C@H](/C(C)=C/[C@@H]3CC[C@@H](OC(=S)NC(=O)c4ccco4)[C@H](OC)C3)[C@H](C)[C@@H](O)CC1=O)[C@H](C)C[C@@H]2OC
2: CC[C@@H]1/C=C(\C)C[C@H](C)C[C@H](OC)[C@H]2O[C@@](O)(C(=O)C(=O)N3CCCC[C@H]3C(=O)O[C@H](/C(C)=C/[C@@H]3CC[C@@H](O)[C@H](OC)C3)[C@H](C)[C@@H](O)CC1=O)[C@H](C)C[C@@H]2OC
Q: # argmax over rIC50 for candidates 1 and 2 // caller expects the label of the chosen entry
Ans: 1
(1: 3.5, 2: 1.7)

====

method: In vitro immunosuppressive activity measured in the interleukin-2 receptor gene assay (IL-2 RGA) in mitogen-stimulated human T-cell line; relative to FK506
endpointName: rIC50

a: C=CC[C@@H]1/C=C(\C)C[C@H](C)C[C@H](OC)[C@H]2O[C@@](O)(C(=O)C(=O)N3CCCC[C@H]3C(=O)O[C@H](/C(C)=C/[C@@H]3CC[C@@H](O)[C@H](OC)C3)[C@H](C)[C@@H](O)CC1=O)[C@H](C)C[C@@H]2OC [TACROLIMUS ANHYDROUS]
b: CC[C@@H]1/C=C(\C)C[C@H](C)C[C@H](OC)[C@H]2O[C@@](O)(C(=O)C(=O)N3CCCC[C@H]3C(=O)O[C@H](/C(C)=C/[C@@H]3CC[C@@H](OC(=S)NC(=O)c4ccc5ccccc5c4)[C@H](OC)C3)[C@H](C)[C@@H](O)CC1=O)[C@H](C)C[C@@H]2OC
Q: # argmax over rIC50 for candidates a and b // caller expects the label of the chosen entry
Ans: b
(b: 6.5, a: 1)

====

studyTarget: Peptidyl-prolyl cis-trans isomerase FKBP1A (Homo sapiens) (UniProt P62942)
Sequence (P62942 whole entry): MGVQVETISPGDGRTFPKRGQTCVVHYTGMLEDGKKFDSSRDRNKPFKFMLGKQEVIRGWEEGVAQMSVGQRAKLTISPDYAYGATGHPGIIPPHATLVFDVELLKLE
method: Immunosuppressive activity in FK506 binding protein 12 binding assay as inhibitory concentration (rIC50) relative to FK506 IC50 (1.2 nM)
endpointName: rIC50

Some compounds with known rIC50 results, for comparison:
- compound: "CC[C@@H]1/C=C(\\C)C[C@H](C)C[C@H](OC)[C@H]2O[C@@](O)(C(=O)C(=O)N3CCCC[C@H]3C(=O)O[C@H](/C(C)=C/[C@@H]3CC[C@@H](OC(=S)NC(=O)c4ccccc4)[C@H](OC)C3)[C@H](C)[C@@H](O)CC1=O)[C@H](C)C[C@@H]2OC"
  studyTarget: "Peptidyl-prolyl cis-trans isomerase FKBP1A (Homo sapiens) (UniProt P62942)"
  assayResult: 6.3
- compound: "CC[C@@H]1/C=C(\\C)C[C@H](C)C[C@H](OC)[C@H]2O[C@@](O)(C(=O)C(=O)N3CCCC[C@H]3C(=O)O[C@H](/C(C)=C/[C@@H]3CC[C@@H](OC(=O)NNc4ccccc4)[C@H](OC)C3)[C@H](C)[C@@H](O)CC1=O)[C@H](C)C[C@@H]2OC"
  studyTarget: "Peptidyl-prolyl cis-trans isomerase FKBP1A (Homo sapiens) (UniProt P62942)"
  assayResult: 1.5

I: CC[C@@H]1/C=C(\C)C[C@H](C)C[C@H](OC)[C@H]2O[C@@](O)(C(=O)C(=O)N3CCCC[C@H]3C(=O)O[C@H](/C(C)=C/[C@@H]3CC[C@@H](O)[C@H](OC)C3)[C@H](C)[C@@H](O)CC1=O)[C@H](C)C[C@@H]2OC [ASCOMYCIN]
II: CC[C@@H]1/C=C(\C)C[C@H](C)C[C@H](OC)[C@H]2O[C@@](O)(C(=O)C(=O)N3CCCC[C@H]3C(=O)O[C@H](/C(C)=C/[C@@H]3CC[C@@H](OC(=S)N(C)C(=O)CCC(=O)OC)[C@H](OC)C3)[C@H](C)[C@@H](O)CC1=O)[C@H](C)C[C@@H]2OC
Q: # argmax over rIC50 for candidates I and II // caller expects the label of the chosen entry
Ans: II
(II: 2.7, I: 0.9)
